experimentalDetails: Counterscreen Assay for Enhancers of SMN2 Splice Variant Expression: Modulation of SMN1 Expression
assayContext: HEK293 SMN1-luciferase reporter, luminescence, 30-36 h; series mostly up to 22.8 µM
Records with an inconclusive call do not appear. Activity calls are given as the source filed them. The call rests on the fitted dose curve; in most records, active means well fitted inhibition curve with a large enough effect; inconclusive means small, poorly fitted or top-dose-only effect; inactive means flat fitted curve, though single readings scatter.
measurementLabel: outcome

O=C(Cc1c(F)cccc1Cl)N1CCN(C(=O)c2ccco2)CC1 :: inactive
COCCCN1C(=O)C(=O)/C(=C(/O)c2ccc3c(c2)CC(C)O3)C1c1cccnc1 (stereo not drawn) :: inactive
Nn1c(SCC(=O)NCCC2=CCCCC2)nnc1C1CCCCC1 :: inactive

----------
experimentalDetails: Counterscreen Assay for Enhancers of SMN2 Splice Variant Expression: Modulation of SMN1 Expression
assayContext: HEK293 SMN1-luciferase reporter, luminescence, 30-36 h; series mostly up to 22.8 µM
Records with an inconclusive call do not appear. Calls of active or inactive are those of the source. The call rests on the fitted dose curve; in most records, active means well fitted inhibition curve with a large enough effect; inconclusive means small, poorly fitted or top-dose-only effect; inactive means flat fitted curve, though single readings scatter.
Pick one and only one: active, inactive

FC(F)C(F)(F)C1=CC(c2cccs2)=NCCN1 :: inactive
CC1CN(c2nc(-c3ccc(Br)cc3)nnc2-c2ccccc2)CC(C)N1 (stereo unspecified) :: inactive
CCOC(=O)c1c(-c2cccc(C)c2)csc1NC(=O)c1c(-c2ccccc2)noc1C :: active
Brc1nc2ncnc(NCc3ccco3)c2[nH]1 :: inactive
Nc1ccccc1-c1nnn(CC(=O)N2CCCc3ccccc32)n1 :: inactive

Next:
Task: Hello, I am checking results. What call was entered for CC(C)Nc1nc(-c2ccccc2)nnc1-c1ccccc1 ?
Result: inactive
